System: UACC-62 melanoma
Experiment: NCI-60 one-dose screen, 48 h (100 = growth as untreated, 0 = no growth, -100 = all killed)
Conditions: 10 µM unless noted
Experimental: Growth inhibition of the UACC-62 human tumor cell line is measured as a screen for anti-cancer activity. Cells are grown in 96 well plates and exposed to the test compound for 48 hours. Compounds are tested at a single concentration, which is 10^-5 M for most compounds. The reported endpoint is percent growth (GI% or GIPRCNT), where numbers from 0 - 100% represent growth inhibition, and numbers from -100% - 0 represent cell death. For example, a value of 40 represents 60% growth inhibition. […]
The panel holds about 83,000 compounds, 20% with a hit somewhere; the sample as a whole holds those more often. Active and inactive are the calls of the source. The calls were made as follows: active = growth percent below 10; inactive = the rest.
value.type: growth

(Q) // growth lookup, key: Cn1cc(-c2csc(-c3c[nH]c4ncccc34)n2)c2cc(Br)cnc21
(A) 32.5% (inactive)

(Q) Name the reported growth value associated with the compound O=C1C(=O)c2ccc(Br)cc2-c2cc(Br)ccc21
(A) 92.4% (inactive)

(Q) Entry CCCc1nn(C)c2c(=O)[nH]c(-c3cc(S(=O)(=O)N4CCN(C)CC4)ccc3OCC)nc12 has what growth?
(A) 99.9% (inactive)

(Q) What value of growth has been recorded for this entry: COc1ccc(-n2nnc(C(=O)O)c2-c2cc(OC)c(OC)c(OC)c2)cc1
(A) 109% (inactive)

(Q) Report growth for O=C(c1ccccc1)c1ccco1 please.
(A) 93% (inactive)

(Q) Could you tell me which growth is on file for Cc1ccc(NC(=O)Nc2ccc(-c3cccnc3)cc2N2CCC(CO)CC2)cc1 ?
(A) 4.73% (active)

(Q) Item under review: COc1ccc(Cn2c(NCCCN(C)C)nc(=O)n(Cc3ccc(F)cc3)c2=O)cc1 . Reported growth?
(A) 97% (inactive)

(Q) Looking for the measured growth of C=C1c2c(C)nn(-c3ccc(C#CCOC4OC(CO)C(O)C(O)C4O)cc3)c2N(C)C23C[C@H]1C1(C)c4c(C)nn(-c5ccc(C#CCOC6OC(CO)C(O)C(O)C6O)cc5)c4N(C)C(C)(C[C@H]12)C3 (some centres not stated) , can you help?
(A) -36.7% (active)

(Q) growth lookup needed for Nc1ccc2c(c1)/C(=N/O)c1cc([N+](=O)[O-])ccc1-2 , thanks.
(A) 73.1% (inactive)

(Q) Look up growth for this compound: CCC(C)CC(CC)NCCN1CCN(C(CC)CC(C)CC)C1=S (configuration not stated)
(A) 23.9% (inactive)

(Q) Which value of growth has been reported for O=C(Cn1ccnc1)NC(c1ccccc1)c1ccccc1 in the records?
(A) 89.7% (inactive)

(Q) What value of growth has been reported for the following compound? COc1cccc2c1O/C(=C\c1c([N+](=O)[O-])ncn1C)C2=O
(A) 109% (inactive)

(Q) Field request: growth | item: CN1CCN(Cc2ccc(NC(=O)c3[nH]ncc3Nc3ccnc4ccnn34)cc2)CC1
(A) 67.7% (inactive)

(Q) // query growth value for entry CCC1=C(c2ccc(OC)cc2)C(C)(C)Oc2cc(O)c(CN3CCCC3)cc21
(A) 90.1% (inactive)

(Q) Item Cc1ccc(C(C)C)cc1NC(=O)Nc1ccc([N+](=O)[O-])cc1 has what recorded growth?
(A) 11.7% (inactive)

(Q) Consider the compound Cc1cc(Cl)ccc1Nc1nc(C(F)(F)F)ccc1C(=O)NCC(=O)N/N=C/c1c(Cl)cccc1Cl and give its measured growth.
(A) 63% (inactive)

(Q) Can you look up the measured growth of CCC1=C(c2ccc(OC)cc2)C(C)(C)Oc2c1ccc(O)c2CN1CCCC1 for me?
(A) 10.5% (inactive)

(Q) GET /values?readout=growth&item= c1ccc2cc(C[n+]3ccn(CCCCCCCn4cc[n+](Cc5ccc6ccccc6c5)c4)c3)ccc2c1
(A) 27.3% (inactive)

(Q) GET /values?readout=growth&item= NC(N)=NC(N)=NCCCc1ccccc1
(A) 88.4% [100 µM] (inactive)

(Q) What value of growth has been reported for the following compound? C[n+]1ccc(C#N)c2ccccc21
(A) 115% (inactive)

(Q) Quick check: growth of CSc1nc2c(c(=O)[nH]1)C(c1ccc(Cl)cc1)C1=C(N2)/C(=C/c2ccc(Cl)cc2)CNC1 (configuration not stated) ?
(A) 89.2% (inactive)

(Q) Please report the recorded growth for CN(C)c1ccc2c(c1)/C(=N/O)c1ccccc1-2 .
(A) 64.7% (inactive)

(Q) Which growth value is on record for c1cnc2n[nH]c(Nc3ncnc4c3sc3ncccc34)c2c1 ?
(A) 87.1% (inactive)

(Q) Entry O=C(/C=C/c1ccc(O)c(O)c1)N1CCN(c2ccc(Cl)cc2)CC1 has what growth?
(A) 81.3% (inactive)

(Q) I'd like to know its growth. The compound in question is N#Cc1c(N2CCOCC2)nc2sc3cc(Cl)ccc3n2c1=N
(A) 89.4% (inactive)

(Q) # input compound: CCOC(=O)c1c(C)c(C(=O)OCC)n(C)c1C ; wanted: its growth
(A) 83.8% (inactive)

(Q) Item COc1ccc(CCN2CCCN3C2=Nc2ccccc2S3(=O)=O)cc1 has what recorded growth?
(A) 23.5% (inactive)

(Q) Reported growth for COC1=CC(c2ccc[nH]2)=N/C1=C\c1[nH]c(C)c(C(=O)CCC(=O)Oc2ccc3c(c2)CCC2C3CC[C@]3(C)C(=O)CC[C@@H]23)c1C (some centres not stated) : what is it?
(A) 65% (inactive)

(Q) State the recorded growth for this entry: COc1cccc(CCC2C(=O)CCCC2=O)c1
(A) 103% (inactive)

(Q) Look up growth: O=c1[nH]c(Cl)nc2c1cnn2-c1ccccc1
(A) 67.6% (inactive)

(Q) Please report the recorded growth for COc1ccc2c(c1)nc(N)c1c3cc(OC)c(OC)cc3cn21 .
(A) 22.1% (inactive)

(Q) Any idea what growth was measured for O=C(CSCC(=O)N/N=C/c1ccccc1O)N/N=C\c1ccccc1O ?
(A) 11.2% (inactive)

====

tested on: NCI/ADR-RES ovarian; experiment: NCI-60 one-dose screen, 48 h (100 = growth as untreated, 0 = no growth, -100 = all killed); conditions: 10 µM unless noted
About 83,000 compounds went through this panel and 20% of them were active in at least one assay; those are over-represented in the sample as a whole.
# cutoff 80% applies to growth; >= gives t, < gives f

(Q) Decide: growth of COc1ccc2c(c1)/C(=C\c1c[nH]c3ccc(F)cc13)C(=O)N2 >= 80%?
(A) t

(Q) Tell me whether growth is at least 80% here: O=C(Nc1ccccc1Cl)c1cnc2ccc(C3CCNCC3)cn12
(A) t

(Q) Does growth meet or surpass 80% for Cc1c(C(N)=O)sc2c1c(=O)n(Cc1ccccc1)c1nnc(S(=O)(=O)CC(=O)Nc3ccc(Cl)cc3)n21 ?
(A) t

(Q) Check if growth >= 80% (inclusive). Item: Cc1ccc(NC(=O)Nc2ccc(-c3cccnc3)cc2N2CCC(CO)CC2)cc1
(A) f

(Q) Could you tell me if the measured growth of Cc1cc(CC(=O)O)n(C)c1C(=O)c1ccc(Cl)cc1 reaches 80% or more?
(A) t

(Q) Identify whether the reported growth of the following molecule is 80% or greater: Cc1cc(C(=O)O)c(C)cc1C(=O)O
(A) t

(Q) Record COc1ccc(/C=C2\NC(=S)NC2=O)cc1 ; criterion: growth no lower than 80%. Met?
(A) t

(Q) Check if growth >= 80% (inclusive). Item: COc1cc([C@@H]2c3cc4c(cc3C(O[C@@H]3O[C@@H]5CO[C@@H](c6cccs6)OC5[C@H](O)[C@H]3O)C3COC(=O)[C@@H]32)OCO4)cc(OC)c1O (stereo not given in full)
(A) f

(Q) Identify whether the reported growth of the following molecule is 80% or greater: COc1ccc2c(c1)nc(N)c1c3cc(C)c(C)cc3cn21
(A) f

(Q) Answer whether growth of CCOC(Cc1c(N)[nH]c(=S)[nH]c1=O)OCC is greater than or equal to 80%.
(A) t

(Q) Can CCOC(=O)c1c2c(c(C)n1Cc1ccc(OC)cc1)-c1nc(N)ncc1CC2 be said to have growth at or above 80%?
(A) t

(Q) Please indicate if the recorded growth for COc1ccc2nc(NC(=O)c3cc(-c4ccc(F)cc4)n4nc(-c5ccccc5)cc4n3)sc2c1 meets or exceeds 80%.
(A) f

(Q) Could you please find out whether NC(=O)NN=C(C1CC1)C1CC1 has growth that meets 80% or exceeds it?
(A) t

(Q) Has CN(C)c1ccc(/C=C\c2ccnc3ccccc23)cc1 a recorded growth greater than or equal to 80%?
(A) f

(Q) Tell me whether growth is at least 80% here: COc1ccc(-c2nnc(COc3ccc(NC(=O)Nc4cc(C(F)(F)F)cc(C(F)(F)F)c4)cc3F)o2)cc1
(A) f

(Q) Does the reported growth for Cn1c(=O)c2c(nc(Br)n2CCC(=O)Nc2ccc(F)cc2)n(C)c1=O fall at or above the 80% mark?
(A) t

(Q) Assess whether reported growth for CCCCCCCC/C=C/CCCCCCCC1=NC(C)(C)CN1CCO sits at 80% or higher.
(A) f

(Q) Could you verify whether the entry CCOC(=O)/C(=C/c1ccccc1)C(=O)c1ccccc1 shows growth of no less than 80%?
(A) f

(Q) Is the recorded value of growth equal to or greater than 80% for this molecule? CC(=O)Oc1ccc(C2OC(c3ccc4ccccc4c3OC(C)=O)=NN2C(C)=O)c(OC(C)=O)c1 (stereo not given)
(A) f

(Q) In plain terms: is recorded growth at least 80% for O=C(Nc1ccc(Cl)cc1)Nc1ccc(Oc2nncc3ccccc23)cc1 ?
(A) f

(Q) Does C=CC1=C(C(=O)O)N2C(=O)[C@@H](NC(=O)/C(=N\O)c3csc(N)n3)[C@H]2SC1 (stereo in doubt) have a reported growth of at least 80%?
(A) t

(Q) Reported growth reaches at least 80% for COc1ccc(-c2cc(C(=O)Nc3nc4cc(C)c(C)cc4s3)nc3cc(-c4ccccc4)nn23)cc1OC ?
(A) t

(Q) State whether the measured growth reaches 80%, counting equality as reaching it, for NC(=O)SCC(=O)Nc1ccccc1-c1ccccc1
(A) t

(Q) Would you say O=C(CCc1nnc(Cn2ccnc2)o1)c1nc2ccccc2[nH]1 shows growth at minimum 80%?
(A) t

(Q) Is reported growth greater than or equal to 80% here: N#Cc1c2ccccc2c2n1-c1ccccc1OC(c1ccccc1)C2=O (stereo not given)
(A) f

(Q) In plain terms: is recorded growth at least 80% for O=c1ccn(C2OC(CO)C(O)C2F)c(=O)[nH]1 (stereo not given) ?
(A) t

(Q) growth >= 80% for CN=C(NC)N/N=C(C)\C=N\NC(=NC)NC ?
(A) t

(Q) Determine whether measured growth meets or exceeds 80% for COc1ccc2c(c1)C(=O)c1c-2c(OCCN(C)C)nc2cc(OC)ccc12
(A) f

(Q) Entry CCC(C)(C)C(=O)O[C@H]1C[C@@H](C)C=C2C=C[C@H](C)[C@H](CC[C@@H]3C[C@@H](O)CC(=O)O3)[C@H]21 : is its growth no less than 80%?
(A) f

(Q) Entry Nc1ccc(C2=Nc3cccc4cccc(c34)S2)cc1 : is its growth no less than 80%?
(A) t

(Q) Say whether Clc1ccc([C@@H]2C[C@@H]3Cc4cc(Br)c5ccccc5c4N2O3)c(Cl)c1 shows growth of 80% or more.
(A) f

(Q) Could you please find out whether COc1ccc(C2CC(c3ccc(OC)c(OC)c3)=NN2C(=O)c2cc(OC)c(OC)c(OC)c2)c(OC)c1 (stereo not given) has growth that meets 80% or exceeds it?
(A) f

(Q) Does the molecule Nc1nc(SCC2(CCl)COC2)c2[nH]cnc2n1 have recorded growth that is 80% or more?
(A) t

(Q) Is growth for CCOc1ccccc1C(=O)OCC(=O)Nc1cccc(S(=O)(=O)N(C)C)c1 at or above 80%?
(A) t

(Q) Has NC(=O)c1ncn([C@@H]2O[C@H](CO)[C@@H](O)[C@H]2O)n1 a recorded growth greater than or equal to 80%?
(A) t

(Q) # bool: growth of C=C(C)[C@@H]1C[C@H](O)Cc2cc(Cl)cc(Cl)c2N1 >= 80%
(A) t

(Q) Would you say Cc1nn(-c2ccc(Cl)cc2)c2nc3c(nc12)C(=O)c1ccccc1-3 shows growth at minimum 80%?
(A) f

(Q) hey, is growth for this one >= 80%? CCN1C[C@@H](C)n2c(c(O)c3c(=O)n(Cc4ccc(F)c(Cl)c4)nc(C(=O)NC)c32)C1=O
(A) f

(Q) Does COc1ccc(C(=O)/C=C/c2c(Cl)nc3c(c(C)nn3-c3ccccc3)c2-c2ccc(Br)cc2)cc1 have a reported growth of at least 80%?
(A) t
